# System: Fibroblast
# PROCEDURE_SUMMARY: Multiplex assay against human fibroblast
# Format: toxicity, cell-based
# PROTOCOL_CONDITIONS: 12 h, 1 µM, compound concentration 1 uM, replicate 2
Listing of recorded Population Healthy Nuclei (%) by entry.
API: value field is a number in %; no unit string.

// known answers, use as guide
Cc1ccc(S(=O)(=O)NC2c3ccccc3Oc3ccccc32)cc1; 76
CN(c1cc(C(F)(F)F)nc(OCCC(=O)O)n1)c1cccc2c1CCC2; 80
C=CC(=O)Nc1cc(-n2c(=O)ccc3cnc4ccc(-c5ccc(NS(C)(=O)=O)cc5)cc4c32)ccc1C; 77

**Q:** I'd like to know its Population Healthy Nuclei (%). The compound in question is C[C@@H](Oc1cc(-n2cnc3ccc(CN4CCN(C)CC4)cc32)sc1C(N)=O)c1ccccc1C(F)(F)F
**A:** 71

**Q:** Which measured Population Healthy Nuclei (%) value corresponds to Cc1c(Nc2ccc(S(=O)(=O)N3CCN(C)CC3)cc2F)nc2ccc(Nc3cnn(C4CC4)c3)cn2c1=O ?
**A:** 24

**Q:** # Population Healthy Nuclei (%) lookup, item CCOC(=O)CCNc1cc(N2CCc3ccccc3CC2)nc(-c2ccccn2)n1
**A:** 42

**Q:** // Population Healthy Nuclei (%) lookup, key: Cc1c(Nc2ccc(S(=O)(=O)N3CCN(C)CC3)cc2F)nc2ccc(-c3cnn(C4CC4)c3)cn2c1=O
**A:** 40

**Q:** What Population Healthy Nuclei (%) value was documented for this compound, CC(/C=C1\SC(=S)N(CCCC(=O)Nc2ccc(C(=O)O)c(O)c2)C1=O)=C\c1ccccc1 ?
**A:** 81
